- Target or system: TET1CD (Homo sapiens)
- Sequence (Q8NFU7 1418-2136): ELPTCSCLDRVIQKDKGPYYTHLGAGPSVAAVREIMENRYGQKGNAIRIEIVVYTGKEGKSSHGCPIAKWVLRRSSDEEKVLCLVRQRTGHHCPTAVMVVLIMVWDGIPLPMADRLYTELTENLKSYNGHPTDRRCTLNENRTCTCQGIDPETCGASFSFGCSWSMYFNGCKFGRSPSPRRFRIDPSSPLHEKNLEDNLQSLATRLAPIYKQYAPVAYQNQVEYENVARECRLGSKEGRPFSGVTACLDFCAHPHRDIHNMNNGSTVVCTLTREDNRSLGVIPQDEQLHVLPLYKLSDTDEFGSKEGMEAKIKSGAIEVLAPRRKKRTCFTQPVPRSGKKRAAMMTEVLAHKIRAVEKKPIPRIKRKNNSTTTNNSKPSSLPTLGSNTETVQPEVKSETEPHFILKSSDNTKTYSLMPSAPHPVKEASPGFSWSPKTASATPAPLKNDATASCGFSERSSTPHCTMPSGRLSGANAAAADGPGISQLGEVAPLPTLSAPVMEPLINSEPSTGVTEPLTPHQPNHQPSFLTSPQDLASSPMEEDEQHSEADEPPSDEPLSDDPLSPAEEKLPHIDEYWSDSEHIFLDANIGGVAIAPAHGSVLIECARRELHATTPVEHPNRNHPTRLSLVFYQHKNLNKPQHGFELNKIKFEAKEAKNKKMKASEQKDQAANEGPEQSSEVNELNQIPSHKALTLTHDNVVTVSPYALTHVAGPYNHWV
- Details: U2OS, 24 h with Dox induction, 5hmC IF; named compound dosed; replicates in parentheses
Where a name gives a salt, the structure may show the parent alone.
// reported Cellular pEC50 TET1CD per item
Observable: Cellular pEC50 TET1CD

> print(dat)
                                   molecule             observable    value.measured
1      CCN(CCN(C)C)C(=O)CNCc1cc(C(N)=O)ccn1  Cellular pEC50 TET1CD            <3 (2)
2  COC(=O)c1ccnc(C(=O)OC)c1 [dimethyl 2,4-PDCA, dimethylpyridine-2,4-dicarboxylate]  Cellular pEC50 TET1CD           < 3 (4)
3  CCCCCCCCOC(=O)[C@H](O)CCC(=O)O [octyl-(R)-2HG, R-Octyl-2-hydroxyglutarate]  Cellular pEC50 TET1CD   2.83 ± 0.09 (3)
4                     COC(=O)CNC(=O)C(=O)OC  Cellular pEC50 TET1CD  3.96 ± 0.42 (10)
5          O=C(O)CNC(=O)c1nc(Cl)c2ccccc2c1O  Cellular pEC50 TET1CD            <3 (2)
6   COC(=O)/C=C/C(=O)OC [dimethyl fumarate]  Cellular pEC50 TET1CD   3.50 ± 0.15 (3)
7                   O=C(O)c1ccc(O)c2ncccc12  Cellular pEC50 TET1CD  4.99 ± 0.32 (12)
